FYI, the data here is from patent US8063071B2.

# Target of assay: Recombinant human IKKβ (residues 1-737) (Homo sapiens)
# Construct: Recombinant human IKKβ (residues 1-737); GST (C); made in house
# Sequence (O14920 1-737): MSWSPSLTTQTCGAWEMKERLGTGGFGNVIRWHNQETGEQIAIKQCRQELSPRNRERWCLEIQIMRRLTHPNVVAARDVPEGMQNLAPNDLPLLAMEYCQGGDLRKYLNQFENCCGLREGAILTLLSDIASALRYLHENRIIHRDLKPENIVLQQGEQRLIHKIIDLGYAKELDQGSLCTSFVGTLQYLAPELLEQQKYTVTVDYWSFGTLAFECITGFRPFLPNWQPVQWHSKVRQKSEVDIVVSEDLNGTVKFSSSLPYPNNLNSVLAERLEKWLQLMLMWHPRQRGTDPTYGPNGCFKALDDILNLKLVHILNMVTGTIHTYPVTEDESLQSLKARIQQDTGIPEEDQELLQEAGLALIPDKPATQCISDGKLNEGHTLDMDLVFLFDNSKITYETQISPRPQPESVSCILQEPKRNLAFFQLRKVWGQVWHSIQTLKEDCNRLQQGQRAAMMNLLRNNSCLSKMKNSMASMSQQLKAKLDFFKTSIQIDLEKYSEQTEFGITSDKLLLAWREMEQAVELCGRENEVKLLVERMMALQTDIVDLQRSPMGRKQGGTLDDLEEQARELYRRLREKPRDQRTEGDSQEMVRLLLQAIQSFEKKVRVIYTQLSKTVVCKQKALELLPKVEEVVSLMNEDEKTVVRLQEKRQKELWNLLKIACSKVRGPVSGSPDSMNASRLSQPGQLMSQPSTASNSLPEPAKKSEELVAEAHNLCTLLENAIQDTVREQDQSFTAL
# Protocol description: IKK2 assay (TR-FRET)
# Type: biochemical
# Test context: ATP 1 μM final, read-out: pIC50 against IKK2 (converted)
Structures can show the parent of a compound that is named as a salt.
Measurement label: IC50

Molecule	IC50
CCS(=O)(=O)N1CCC(c2c[nH]c3c(C(N)=O)cc(-c4ccc(N5CCNCC5)nc4)cc23)CC1 [Example 135, trifluoroacetate]	≤ 10 µM
CCS(=O)(=O)N1CCC(c2c[nH]c3c(C(N)=O)cc(-c4cccc(C(C)N5CCCC5)c4)cc23)CC1 (stereo not shown) [Example 296, trifluoroacetate]	≤ 10 µM
CCS(=O)(=O)N1CCC(c2c[nH]c3c(C(N)=O)cc(-c4cc(CN[C@@H](C)C(C)C)ccc4F)cc23)CC1 [Example 337, trifluoroacetate]	≤ 10 µM
CCS(=O)(=O)N1CCC(c2c[nH]c3c(C(N)=O)cc(-c4cc(CNCCCOC)ccc4F)cc23)CC1 [Example 343, trifluoroacetate]	≤ 10 µM
CCS(=O)(=O)N1CCC(c2c[nH]c3c(C(N)=O)cc(-c4cccc(CNS(=O)(=O)c5ccc(Br)cc5)c4)cc23)CC1	≤ 10 µM
CC(C)S(=O)(=O)N1CCC(c2c[nH]c3c(C(N)=O)cc(-c4csc(CN(C)C)c4)cc23)CC1 [Example 220, trifluoroacetate]	≤ 10 µM
CCS(=O)(=O)N1CCC(c2c[nH]c3c(C(N)=O)cc(-c4cnn(CCN5CCCC5)c4)cc23)CC1 [Example 253, trifluoroacetate]	≤ 10 µM
CCCC(C)NCc1cccc(-c2cc(C(N)=O)c3[nH]cc(C4CCN(S(=O)(=O)CC)CC4)c3c2)c1 (stereo not shown) [Example 154, trifluoroacetate]	≤ 10 µM
CCS(=O)(=O)N1CCC(c2c[nH]c3c(C(N)=O)cc(-c4cccc(CNC5CC5)c4)cc23)CC1	≤ 10 µM
CCS(=O)(=O)N1CCC(c2c[nH]c3c(C(N)=O)cc(-c4cccc(CN(C)CC(N)=O)c4)cc23)CC1 [Example 39, trifluoroacetate]	≤ 10 µM

Could you share which IC50 value was measured for CCS(=O)(=O)N1CCC(c2c[nH]c3c(C(N)=O)cc(-c4cnn(CCN(C)C)c4)cc23)CC1 ?
≤ 10 µM

Could you share which IC50 value was measured for CCS(=O)(=O)N1CCC(c2c[nH]c3c(C(N)=O)cc(-c4ccc(CNC(=O)c5ccncc5)cc4)cc23)CC1 ?
≤ 10 µM

Could you share which IC50 value was measured for CCS(=O)(=O)N1CCC(c2c[nH]c3c(C(N)=O)cc(-c4cc(CN(C)CCO)c(OC)c(OC)c4)cc23)CC1 ?
≤ 10 µM
